Target: T1, human prolactin receptor (PRLR) (human, UniProt P16471 25-622)
T1 sequence: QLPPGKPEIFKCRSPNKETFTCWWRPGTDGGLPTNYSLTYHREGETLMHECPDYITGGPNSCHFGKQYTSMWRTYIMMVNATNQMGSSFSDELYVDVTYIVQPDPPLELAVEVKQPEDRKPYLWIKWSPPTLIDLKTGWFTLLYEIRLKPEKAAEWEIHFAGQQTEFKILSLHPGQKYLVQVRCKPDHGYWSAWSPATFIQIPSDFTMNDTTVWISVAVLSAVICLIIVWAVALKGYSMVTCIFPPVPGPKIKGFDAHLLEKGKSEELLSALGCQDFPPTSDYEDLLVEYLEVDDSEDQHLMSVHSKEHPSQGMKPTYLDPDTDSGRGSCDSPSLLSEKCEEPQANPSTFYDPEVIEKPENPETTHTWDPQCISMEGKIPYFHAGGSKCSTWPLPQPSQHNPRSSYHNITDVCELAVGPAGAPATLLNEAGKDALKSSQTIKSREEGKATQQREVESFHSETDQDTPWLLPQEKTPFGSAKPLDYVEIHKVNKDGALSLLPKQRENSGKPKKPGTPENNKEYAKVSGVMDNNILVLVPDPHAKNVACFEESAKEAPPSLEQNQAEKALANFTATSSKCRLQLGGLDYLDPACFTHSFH
Experiment: cell-based or functional assay
Measured IC50, cell viability, MCF7/PRLR cells, listed per entry.
The reply should contain only the number, in nM.

{"binder": "H1H6762P-DM1 (antibody, human IgG1, V domains shown, DM1 conjugated through SMCC linker; attachment residues not stated) VH: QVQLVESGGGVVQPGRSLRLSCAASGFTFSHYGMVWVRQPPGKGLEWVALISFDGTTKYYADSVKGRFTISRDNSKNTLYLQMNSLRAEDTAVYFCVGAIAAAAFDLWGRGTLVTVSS VL: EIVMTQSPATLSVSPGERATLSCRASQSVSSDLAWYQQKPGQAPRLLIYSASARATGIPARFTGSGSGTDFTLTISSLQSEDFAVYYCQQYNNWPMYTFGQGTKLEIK", "IC50, cell viability, MCF7/PRLR cells [nM]": 0.46}
{"binder": "H1H6960N-DM1 (antibody, human IgG1, V domains shown, DM1 conjugated through SMCC linker; attachment residues not stated) VH: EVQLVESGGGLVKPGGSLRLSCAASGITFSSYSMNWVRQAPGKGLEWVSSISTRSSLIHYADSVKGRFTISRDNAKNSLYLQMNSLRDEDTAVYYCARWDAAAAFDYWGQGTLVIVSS VL: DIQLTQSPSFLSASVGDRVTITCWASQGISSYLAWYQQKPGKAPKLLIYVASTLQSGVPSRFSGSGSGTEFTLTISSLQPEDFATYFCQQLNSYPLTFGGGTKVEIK", "IC50, cell viability, MCF7/PRLR cells [nM]": 0.29}

Now for another entry.
Tell me measured IC50, cell viability, MCF7/PRLR cells for H1H6800P-DM1 (antibody, human IgG1, V domains shown, DM1 conjugated through SMCC linker; attachment residues not stated) VH: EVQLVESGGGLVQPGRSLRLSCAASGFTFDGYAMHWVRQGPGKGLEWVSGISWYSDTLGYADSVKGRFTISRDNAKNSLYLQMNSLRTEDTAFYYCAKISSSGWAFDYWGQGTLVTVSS VL: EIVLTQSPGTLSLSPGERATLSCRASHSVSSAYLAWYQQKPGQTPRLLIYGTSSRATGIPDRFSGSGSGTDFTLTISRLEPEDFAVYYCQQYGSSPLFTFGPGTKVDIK please.
0.4
